- EXPERIMENTAL_PROTOCOL: Cytotoxicity assay (PrestoBlue) HepG2
- Assay type: cell-based
- MEASUREMENT_PARAMETERS: human, HepG2 cells (hepatoma cell line), 24 h incubation
Just a reminder that ties go to no (0): only EC50 at 24 h strictly below 200 µM counts as yes (1).

Exam item: Please determine if `COc1cc(NC(=N)N)ccc1-c1ccc(-c2ccc(NC(=N)N)cc2OC)o1` is below 200 µM in terms of EC50 at 24 h.
Marked response: no (0)

Exam item: Is the reported EC50 at 24 h for `Nc1c(Nc2ccc(-c3ccc(-c4ccc(Nc5c(N)c(=O)c5=O)cc4)o3)cc2)c(=O)c1=O` strictly below 200 µM?
Marked response: no (0)

Exam item: In the record for `N#Cc1cc(NC(=N)N)ccc1-c1ccc(-c2ccc(NC(=N)N)cc2C#N)o1` , is EC50 at 24 h less than 200 µM?
Marked response: yes (1)

Exam item: Record `N=C(N)Nc1ccc(-c2ccc(C(=O)N3CCc4cc(NC(=N)N)ccc43)o2)c(Cl)c1` : is its EC50 at 24 h strictly below 200 µM?
Marked response: no (0)

Exam item: Is it true that EC50 at 24 h reported for `N=C(N)Nc1ccc2c(c1)CCN2C(=O)c1ccc(-c2ccc(NC(=N)N)cc2C(F)(F)F)o1` is less than 200 µM?
Marked response: no (0)

Exam item: Is EC50 at 24 h strictly under 200 µM for the entry `N=C(N)Nc1ccc(-c2ccc(-c3ccc(NC(=N)N)cc3C(F)(F)F)o2)c(C(F)(F)F)c1` ?
Marked response: yes (1)

Exam item: Quick check: EC50 at 24 h of `Nc1c(Nc2ccc(-c3ccc(-c4ccc(Nc5c(N)c(=O)c5=O)cc4C(F)(F)F)o3)c(C(F)(F)F)c2)c(=O)c1=O` under 200 µM?
Marked response: yes (1)

Exam item: Lab note: confirm whether the reported EC50 at 24 h for this compound is below 200 µM, equality not counting. compound: `Cc1cc(Nc2c(N)c(=O)c2=O)ccc1-c1ccc(-c2ccc(Nc3c(N)c(=O)c3=O)cc2C)o1`
Marked response: yes (1)

Exam item: Say whether its EC50 at 24 h is strictly beneath 200 µM. Entry: `N=C(N)Nc1ccc(-c2ccc(-c3ccc(NC(=N)N)cc3)o2)cc1`
Marked response: yes (1)

Exam item: Is it true that EC50 at 24 h reported for `N=C(N)Nc1ccc(-c2ccc(C(=O)N3CCc4ccccc43)o2)c(Cl)c1` is less than 200 µM?
Marked response: yes (1)

Exam item: Item `N=C(N)Nc1ccc(-c2ccc(-c3ccc(NC(=N)N)cc3Cl)o2)c(Cl)c1` : EC50 at 24 h beneath 200 µM, strictly?
Marked response: yes (1)

Exam item: Determine whether this compound shows EC50 at 24 h lower than 200 µM (ties excluded): `N=C(N)Nc1ccc(-c2ccc(C(=O)N3CCc4cc(NC(=N)N)ccc43)o2)cc1`
Marked response: no (0)

Exam item: In plain terms, does `N=C(N)NCc1ccc(-c2ccc(-c3ccc(CNC(=N)N)cc3)o2)cc1` come in under 200 µM for EC50 at 24 h?
Marked response: yes (1)

Exam item: I'd appreciate it if you could check whether `COC(=O)c1cc(NC(=N)N)ccc1-c1ccc(-c2ccc(NC(=N)N)cc2C(=O)OC)o1` has EC50 at 24 h smaller than 200 µM.
Marked response: no (0)

----------
For each record, write down the corresponding EC50 at 24 h.
- EXPERIMENTAL_PROTOCOL: Cytotoxicity assay (PrestoBlue) HepG2
- Assay type: cell-based
- MEASUREMENT_PARAMETERS: human, HepG2 cells (hepatoma cell line), 24 h incubation
Give the quantity in µM, number only.

Looking up `N=C(N)Nc1ccc2c(c1)CCN2C(=O)c1ccc(-c2ccccc2Cl)o1` , I found its EC50 at 24 h recorded as 24.8

// sample `Nc1c(Nc2ccc(-c3ccc(-c4ccc(Nc5c(N)c(=O)c5=O)cc4Cl)o3)c(Cl)c2)c(=O)c1=O` , its EC50 at 24 h was 183

Sample `Cc1cc(NC(=N)N)ccc1-c1ccc(-c2ccc(NC(=N)N)cc2C)o1` ; EC50 at 24 h observed: 51.3

----------
I'd appreciate it if you could supply MIC values for the items below.
- Tested on: Pseudomonas aeruginosa CCUG # 17619
- EXPERIMENTAL_PROTOCOL: MIC of established antibiotics, micro-broth dilution
- MEASUREMENT_PARAMETERS: CCUG17619, read-out: MIC Pseudomonas aeruginosa CCUG 17619
Reply with just the number (in µM).

Reported MIC of CC1(C)S[C@@H]2[C@H](NC(=O)[C@H](N)c3ccc(O)cc3)C(=O)N2[C@H]1C(=O)O [Amoxicillin] : 350

So, CO/N=C(\C(=O)N[C@@H]1C(=O)N2C(C(=O)O)=C(COC(C)=O)CS[C@H]12)c1csc(N)n1 [CTX, Cefotaxime, reference compound] ? Its MIC was 36

----------
- EXPERIMENTAL_PROTOCOL: Cytotoxicity assay (PrestoBlue) MCF-7
- Type: cell-based
- MEASUREMENT_PARAMETERS: human, MCF-7 cells (breast cancer cell line), 24 h incubation
QUANTITY_KIND: EC50 at 24 h (µM)
Quick reminder: number only, in µM, skip the unit.

Looking up `N#Cc1cc(NC(=N)N)ccc1-c1ccc(-c2ccc(NC(=N)N)cc2C#N)o1` , I found its EC50 at 24 h recorded as 46

The measured EC50 at 24 h associated with `Nc1c(Nc2ccc(-c3ccc(-c4ccc(Nc5c(N)c(=O)c5=O)cc4C(F)(F)F)o3)c(C(F)(F)F)c2)c(=O)c1=O` reads 173

Form field EC50 at 24 h, entry `COc1cc(NC(=N)N)ccc1-c1ccc(-c2ccc(NC(=N)N)cc2OC)o1` : 74.7

The measured EC50 at 24 h associated with `N=C(N)Nc1ccc(-c2ccc(C(=O)N3CCc4ccccc43)o2)c(Cl)c1` reads 37.8

Entry under test: `N=C(N)Nc1ccc(-c2ccc(-c3ccc(NC(=N)N)cc3)o2)cc1` . Its EC50 at 24 h was 64.5

Form: compound = `N=C(N)Nc1ccc(-c2ccc(-c3ccc(NC(=N)N)cc3C(F)(F)F)o2)c(C(F)(F)F)c1` ; EC50 at 24 h = 23.2

----------
I'd appreciate it if you could supply EC90 values for the items below.
- Test system: E. coli MG1655 (CGSC #6300)
- EXPERIMENTAL_PROTOCOL: Antibacterial resazurin assay, laboratory strain
- MEASUREMENT_PARAMETERS: Escherichia coli, MG1655, 18 h, read-out: Eco EC90
Write your answer as a measured quantity: the number, then the unit.

EC90 measured on `COc1cc(NC(=N)N)ccc1-c1ccc(-c2ccc(NC(=N)N)cc2OC)o1` = 76.3 µM

Note to self: EC90 recorded for `N=C(N)Nc1ccc(-c2ccc(C(=O)N3CCc4ccccc43)o2)c(Cl)c1` was 106 µM

Item: `N=C(N)Nc1ccc(-c2ccc(-c3ccc(NC(=N)N)cc3)o2)cc1` | EC90: 174 µM

For `N=C(N)Nc1ccc(-c2ccc(-c3ccc(NC(=N)N)cc3Cl)o2)c(Cl)c1` the compound record lists EC90 as 148 µM

For this compound ( `N=C(N)NCc1ccc(-c2ccc(-c3ccc(CNC(=N)N)cc3)o2)cc1` ), measured EC90 is 108 µM

----------
- Tested on: E. coli MG1655 (CGSC #6300)
- EXPERIMENTAL_PROTOCOL: Antibacterial resazurin assay, laboratory strain
- MEASUREMENT_PARAMETERS: Escherichia coli, MG1655, 18 h, read-out: Eco EC90
QUANTITY_KIND: EC90

Briefly, EC90 measured for `Nc1c(Nc2ccc(-c3ccc(-c4ccc(Nc5c(N)c(=O)c5=O)cc4)o3)cc2)c(=O)c1=O` : > 300 µM

Quick note, EC90 for `Nc1c(Nc2ccc(-c3ccc(-c4ccc(Nc5c(N)c(=O)c5=O)cc4C(F)(F)F)o3)c(C(F)(F)F)c2)c(=O)c1=O` landed at > 300 µM

EC90 reading for `Cc1cc(Nc2c(N)c(=O)c2=O)ccc1-c1ccc(-c2ccc(Nc3c(N)c(=O)c3=O)cc2C)o1` : > 300 µM

GET /value?item= `Nc1c(Nc2ccc(-c3ccc(-c4ccc(Nc5c(N)c(=O)c5=O)cc4Cl)o3)c(Cl)c2)c(=O)c1=O` &field=EC90 returns > 300 µM

Short answer for `Cc1nc(NC(=N)N)ccc1-c1ccc(-c2ccc(NC(=N)N)nc2C)o1` : EC90 was > 900 µM

----------
- Test system: P. aeruginosa (CCUG #17619)
- EXPERIMENTAL_PROTOCOL: Antibacterial activity against isolates (Omnilog, Biolog redox dye)
- Assay type: cell-based, Pseudomonas aeruginosa
- MEASUREMENT_PARAMETERS: Pseudomonas aeruginosa, CCUG17619; ca-MH broth, 24 h, 37 °C
QUANTITY_KIND: pEC50
Please express pEC50 as -log10 of the molar concentration.

Documented pEC50 of CO/N=C(\C(=O)N[C@@H]1C(=O)N2C(C(=O)O)=C(COC(C)=O)CS[C@H]12)c1csc(N)n1 [CTX, Cefotaxime, reference compound] : 4.89

Quick note, pEC50 for `COc1cc(NC(=N)N)ccc1-c1ccc(-c2ccc(NC(=N)N)cc2OC)o1` landed at 4.61

Entry `N=C(N)Nc1ccc(-c2ccc(-c3ccc(NC(=N)N)cc3Cl)o2)c(Cl)c1` — recorded pEC50 = 5.32

pEC50 reading for `N=C(N)Nc1ccc(-c2ccc(C(=O)N3CCc4cc(NC(=N)N)ccc43)o2)c(Cl)c1` : 4.77

The compound `N=C(N)Nc1ccc(-c2ccc(-c3ccc(NC(=N)N)cc3)o2)cc1` showed pEC50 equal to 5.05

Recorded pEC50 (compound `Cc1cc(NC(=N)N)ccc1-c1ccc(-c2ccc(NC(=N)N)cc2C)o1` ): 4.75
